Task for the reader: assign each of the following compounds its reported Herbicidal effect rating, ORYSAT.
# Test system: ORYZA SATIVA, L. TEBONNET
# Experimental Details: Rice tolerance to post-transplant applications under flooded paddy conditions, ORYSAT (Rice, Tebonnet)
# Type: in vivo
# Condition Summary: 0.250 kg/ha, post-transplant rice, 3-4 weeks after treatment
// return just the number, without any unit appended

Which Herbicidal effect rating, ORYSAT is reported with ORYZA SATIVA, L. TEBONNET for this entry: COC(=O)Cn1c(=O)n(C)c(=O)n(-c2cc(Oc3ccc(Cl)c(C)c3Cl)ccc2[N+](=O)[O-])c1=O [Compound 20] ?
3.0

One more compound: Cn1c(=O)n(CC(N)=O)c(=O)n(-c2cc(Oc3ncc(C(F)(F)F)cc3Cl)ccc2Br)c1=O [Compound 42]
1.0

One more compound: C=CCn1c(=O)n(CC(=O)OCC)c(=O)n(-c2cc(Oc3ccc(C(F)(F)F)cc3Cl)ccc2[N+](=O)[O-])c1=O [Compound 13]
3.0

One more compound: Cn1c(=O)n(CC(=O)O)c(=O)n(-c2cc(Oc3c(F)cc(C(F)(F)F)cc3Cl)ccc2[N+](=O)[O-])c1=O [Compound 15]
7.0

One more compound: COC(=O)Cn1c(=O)n(C)c(=O)n(-c2cc(Oc3ccc(Cl)c(Cl)c3Cl)ccc2[N+](=O)[O-])c1=O [Compound 26]
3.0

One more compound: COC(=O)Cn1c(=O)n(C)c(=O)n(-c2cc(Oc3ccc(F)c(F)c3F)ccc2[N+](=O)[O-])c1=O [Compound 27]
2.0
